# target desc: T1, rat APJ receptor (rat, UniProt Q9JHG3 1-377)
# T1 sequence (looked up): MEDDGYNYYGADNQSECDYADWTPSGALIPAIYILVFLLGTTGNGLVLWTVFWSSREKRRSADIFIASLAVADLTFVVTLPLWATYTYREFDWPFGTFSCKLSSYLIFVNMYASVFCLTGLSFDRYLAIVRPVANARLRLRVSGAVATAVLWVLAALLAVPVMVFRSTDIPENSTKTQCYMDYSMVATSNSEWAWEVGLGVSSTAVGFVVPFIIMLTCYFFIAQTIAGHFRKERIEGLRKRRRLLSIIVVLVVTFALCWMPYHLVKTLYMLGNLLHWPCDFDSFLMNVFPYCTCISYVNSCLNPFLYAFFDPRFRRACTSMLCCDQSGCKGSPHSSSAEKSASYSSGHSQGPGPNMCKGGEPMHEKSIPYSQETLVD
# procedure text: cell-based or functional assay
Non-standard residues stand in square brackets, D forms with d. No end group written: not given here. Oic = O=C(O)[C@@H]1C[C@@H]2CCCC[C@@H]2N1; Phe(4-Cl) = N[C@@H](Cc1ccc(Cl)cc1)C(=O)O; hArg = N=C(N)NCCCC[C@H](N)C(=O)O; Cha = N[C@@H](CC1CCCCC1)C(=O)O; Nle = CCCC[C@H](N)C(=O)O; Orn = NCCC[C@H](N)C(=O)O; βAla = NCCC(=O)O; Sar = CNCC(=O)O
As shown below, each of these binders has a reported EC50 Rat APJ Receptor value.
State just the number; it will be interpreted in nM.

| binder | EC50 Rat APJ Receptor [nM] |
| --- | --- |
| [Orn]F[hArg][hArg]Q[hArg]P[hArg][Cha][βAla]HKG[Oic][Nle]P[Phe(4-Cl)] [apelin polypeptide SEQ ID NO: 699] | 0.603 |

For [Orn]F[hArg][hArg]Q[hArg]P[hArg][Cha]SHK[βAla][Oic][Nle]P[Phe(4-Cl)] [apelin polypeptide SEQ ID NO: 704] the binder record lists EC50 Rat APJ Receptor as 2.86

The measured EC50 Rat APJ Receptor associated with [Orn]F[hArg][hArg]Q[hArg]P[hArg][Cha]SHKG[Sar][Nle]P[Phe(4-Cl)] [apelin polypeptide SEQ ID NO: 683] reads 0.926
